Hey, just so you know, these numbers are from paper PMC9674253.

Target: NPAS4 (1-348);ARNT2 (50-439) (mouse;mouse, UniProt Q8BGD7;Q61324 1-348;50-439, |)
Sequence (Q8BGD7 1-348, chain 1 of 2): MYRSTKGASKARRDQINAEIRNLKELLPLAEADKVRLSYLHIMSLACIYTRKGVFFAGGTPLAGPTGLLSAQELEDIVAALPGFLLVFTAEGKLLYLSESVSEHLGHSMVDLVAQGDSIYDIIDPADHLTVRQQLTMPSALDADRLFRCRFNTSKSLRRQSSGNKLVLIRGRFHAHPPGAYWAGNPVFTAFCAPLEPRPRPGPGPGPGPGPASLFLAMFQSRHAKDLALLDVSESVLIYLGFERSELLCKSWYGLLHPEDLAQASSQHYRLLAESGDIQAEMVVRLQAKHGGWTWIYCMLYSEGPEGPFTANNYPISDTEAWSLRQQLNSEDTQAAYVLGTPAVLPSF
Sequence (Q61324 50-439, chain 2 of 2): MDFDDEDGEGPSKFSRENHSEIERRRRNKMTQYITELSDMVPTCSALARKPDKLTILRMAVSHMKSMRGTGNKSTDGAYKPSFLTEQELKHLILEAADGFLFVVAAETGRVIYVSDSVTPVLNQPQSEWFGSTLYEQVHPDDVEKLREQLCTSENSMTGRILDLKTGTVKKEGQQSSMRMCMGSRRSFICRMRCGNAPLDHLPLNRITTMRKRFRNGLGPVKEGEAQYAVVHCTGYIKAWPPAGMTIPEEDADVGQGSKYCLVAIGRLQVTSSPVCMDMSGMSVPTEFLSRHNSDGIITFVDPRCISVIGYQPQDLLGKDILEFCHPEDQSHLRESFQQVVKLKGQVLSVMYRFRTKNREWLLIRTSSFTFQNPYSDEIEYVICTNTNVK
Experiment: fluorescence polarization
PROPERTY NAME: pKd
Scale note: pKd = -log10(concentration in M).

query: // pKd lookup, key: 21-mer NPAS4 response element (FP) (dsDNA) DNA 1: GGATGAGGTCGTGAGTGATGA DNA 2: TCATCACTCACGACCTCATCC
result: 7.33
